Quick list: IC50 per entry.
Target: Corticotropin-releasing factor receptor 2/Corticotropin-releasing factor-binding protein (Homo sapiens, UniProt P24387+Q13324)
Sequence (Q13324 whole entry): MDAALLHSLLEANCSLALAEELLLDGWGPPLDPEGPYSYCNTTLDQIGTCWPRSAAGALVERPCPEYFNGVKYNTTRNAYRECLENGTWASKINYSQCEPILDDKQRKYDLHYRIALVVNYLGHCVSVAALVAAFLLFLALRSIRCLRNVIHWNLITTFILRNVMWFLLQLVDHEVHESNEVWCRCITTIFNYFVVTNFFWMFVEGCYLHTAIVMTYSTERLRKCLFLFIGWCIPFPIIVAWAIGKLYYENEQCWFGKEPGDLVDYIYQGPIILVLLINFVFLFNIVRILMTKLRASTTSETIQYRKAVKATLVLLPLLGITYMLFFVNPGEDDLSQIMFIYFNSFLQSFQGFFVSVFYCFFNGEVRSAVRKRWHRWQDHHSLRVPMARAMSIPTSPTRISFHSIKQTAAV
Sequence (P24387 whole entry): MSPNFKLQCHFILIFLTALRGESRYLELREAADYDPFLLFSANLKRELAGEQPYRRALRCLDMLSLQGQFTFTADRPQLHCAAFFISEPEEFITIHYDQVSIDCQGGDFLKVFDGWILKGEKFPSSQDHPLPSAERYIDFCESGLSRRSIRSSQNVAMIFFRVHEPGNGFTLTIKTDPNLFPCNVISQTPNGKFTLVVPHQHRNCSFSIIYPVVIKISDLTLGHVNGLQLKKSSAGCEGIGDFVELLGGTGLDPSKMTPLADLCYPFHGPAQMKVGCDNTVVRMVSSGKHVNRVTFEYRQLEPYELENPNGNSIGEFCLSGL
Assay: Dose Response confirmation of uHTS hits for small molecule antagonists of the CRF-binding protein and CRF-R2 receptor complex.
Format: functional
Details: read-out: IC50_Mean
Activity calls are given as the source filed them. Rule as the data show it: actives have a measured IC50 and inactives only a lower limit.

Consider the reported IC50 for these molecules:
{"Compound structure": "COc1ccc(CNC(=O)C2(c3ccc(Cl)cc3)CC2)cc1", "IC50": "> 47.1 µM (inactive)"}
{"Compound structure": "COc1cccc(CN2CCC(Oc3ccc(C(=O)NCc4ccccn4)cc3)CC2)c1O", "IC50": "> 47.1 µM (inactive)"}

Data point: "CC(C)(C)c1ccc(C(=O)CS(=O)(=O)c2ccccc2)cc1" ; IC50 = > 47.1 µM (inactive)
